Each item that follows carries a reported pKi.
Target: human M4 receptor (Homo sapiens (Human))
Sequence (P08173 whole entry): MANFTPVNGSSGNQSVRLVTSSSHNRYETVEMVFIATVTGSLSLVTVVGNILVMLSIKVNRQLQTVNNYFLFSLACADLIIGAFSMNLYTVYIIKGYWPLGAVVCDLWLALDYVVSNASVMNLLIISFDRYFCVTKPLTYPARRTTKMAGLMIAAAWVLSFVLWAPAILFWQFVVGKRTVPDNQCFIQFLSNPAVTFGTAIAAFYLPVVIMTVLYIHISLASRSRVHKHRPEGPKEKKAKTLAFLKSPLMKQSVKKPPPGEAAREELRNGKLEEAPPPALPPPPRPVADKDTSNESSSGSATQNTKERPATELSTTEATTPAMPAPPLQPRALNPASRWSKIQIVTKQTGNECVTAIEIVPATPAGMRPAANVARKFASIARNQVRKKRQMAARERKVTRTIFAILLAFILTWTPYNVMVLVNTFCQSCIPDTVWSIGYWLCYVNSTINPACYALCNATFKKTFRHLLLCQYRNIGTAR
Experiment: Radioligand (tritiated N-methylscopolamine) binding assay, M4
Settings: Ki against the M4 receptor; membranes from CHO cells expressing human M4; tritiated N-methylscopolamine 1.5 nM; read-out: Ki
Procedure: Binding affinity (Ki) of compounds was measured by inhibition of radioligand binding to membranes from CHO cells expressing human M1, M2, M3, M4 and M5 receptors. […] Harvesting and radioactivity counting was conducted as previously described (see, e.g., Hoare et al., Mol. Pharmacol. 2003 63(3):751-65); Erratum at Mol. Pharmacol. 2005 July; 68(1): 260).
pKi: −log10 of the molar value.

Below, each entry is followed by its recorded pKi result.
{"columns": ["MOLECULE", "ASSAY_TARGET", "pKi"],
 "data": [
  ["COc1cccc(N2CCC(C(=O)NCCC3CCN(Cc4ccccc4)CC3)CC2)c1 [10-53]", "human M4 receptor (Homo sapiens (Human))", "6.00 to 7.00"],
  ["O=C(NCCC1CCN(Cc2ccccc2)CC1)N1CCC(c2c[nH]c3ccccc23)CC1 [8-30]", "human M4 receptor (Homo sapiens (Human))", "6.00 to 7.00"],
  ["N#Cc1ccnc(N2CCC(C(=O)NCCC3CCN(Cc4ccccc4)CC3)CC2)c1 [10-66]", "human M4 receptor (Homo sapiens (Human))", "6.00 to 7.00"],
  ["C[C@@H]1CN(c2ccc(C#N)s2)CCN1C(=O)NCCC1CCN(Cc2ccccc2)CC1 [4-44]", "human M4 receptor (Homo sapiens (Human))", "7.00 to 8.00"],
  ["C[C@@H]1CN(c2ncc(C#N)cn2)C[C@H](C)N1C(=O)NCCC1CCN(Cc2cccc(F)c2)CC1 [6-46]", "human M4 receptor (Homo sapiens (Human))", "> 8.00"],
  ["C[C@H]1CN(c2ccc(OC(F)(F)F)c(F)c2)CCN1C(=O)NCCC1CCN(Cc2ccccc2)CC1 [4-53]", "human M4 receptor (Homo sapiens (Human))", "> 8.00"],
  ["COc1cc(N2CCN(C(=O)NCCC3CCN(Cc4ccccc4)CC3)[C@H](C)C2)ccn1 [22-16]", "human M4 receptor (Homo sapiens (Human))", "7.00 to 8.00"],
  ["C[C@@H]1CN(c2cc(F)c(F)c(F)c2)CCN1C(=O)NCCC1CCN(Cc2cc(F)ccc2F)CC1 [6-25]", "human M4 receptor (Homo sapiens (Human))", "6.00 to 7.00"]
]}

What does the data say about its pKi? Entry: C[C@@H]1CN(c2ncc(C(=O)N(C)C)cn2)CCN1C(=O)NCCC1CCN(Cc2ccccc2)CC1 [27-17] 6.00 to 7.00

Any idea what its pKi is? The molecule is O=C(NCCC1CCN(Cc2ccccc2)CC1)C1(F)CCN(c2ccc(OC(F)(F)F)cc2)CC1 [10-55] 7.00 to 8.00

pKi for C[C@@H]1CN(c2ncc(C#N)cn2)C[C@H](C)N1C(=O)NCCC1CCN(Cc2cccnc2F)CC1 [6-64] ? 6.00 to 7.00

Recorded pKi of C[C@@H]1CN(c2ccc(OC(F)(F)F)nc2)CCN1C(=O)NCCC1CCN(Cc2ccccc2)CC1 [3-8] , please. > 8.00

Recorded pKi for O=C(NCCC1CCN(Cc2ccccc2)CC1)N1CCN(c2cccc(Cl)c2)CC1 [8-11] , please? 7.00 to 8.00

# get_value(readout='pKi', item= Cc1cc(N2CCN(C(=O)NCCC3CCN(Cc4ccccc4)CC3)[C@H](C)C2)ccc1C#N [4-4] ) 6.00 to 7.00

Given C[C@@H]1CN(c2ncc(Cl)cn2)C[C@H](C)N1C(=O)NCCC1CCN(Cc2ccccc2)CC1 [5-18] , state its recorded pKi. > 8.00

* * *

Consider the following compounds and their measured pKi readings.
Target: human M4 receptor (Homo sapiens (Human))
Assay: Radioligand (tritiated N-methylscopolamine) binding assay, M4
Conditions: Ki against the M4 receptor; membranes from CHO cells expressing human M4; tritiated N-methylscopolamine 1.5 nM; read-out: Ki
pKi: −log10 of the molar value.

{"columns": ["COMPOUND", "OBSERVED_VALUE"],
 "data": [
  ["C[C@H]1CN(c2ncc(C#N)cn2)C[C@H](C)N1C(=O)NCCC1CCN(Cc2ccccc2)CC1 [26-3]", "6.00 to 7.00"],
  ["O=C(NCCC1CCN(Cc2ccccc2)CC1)C1CCN(c2ccccc2)CC1 [10-3]", "6.00 to 7.00"],
  ["N#Cc1ccc(N2CCC(C(=O)NCCC3CCN(Cc4ccc5[nH]ccc5c4)CC3)CC2)nc1 [6-11]", "7.00 to 8.00"],
  ["Cc1c(C(=O)NCCC2CCN(Cc3ccccc3)CC2)cnc2cc(-c3ccc(C#N)cc3)nn12 [18-3]", "6.00 to 7.00"],
  ["N#Cc1cc(F)ccc1N1CCC(C(=O)NCCC2CCN(Cc3ccccc3)CC2)CC1 [10-69]", "6.00 to 7.00"],
  ["C[C@@H]1CN(c2cnc(C(F)(F)F)nc2)C[C@H](C)N1C(=O)NCCC1CCN(Cc2ccc3[nH]ccc3c2)CC1 [6-50]", "> 8.00"]
]}

Proceeding to the next compound to report its pKi.
Field request: pKi | item: Cc1c(C(=O)NCCC2CCN(Cc3ccccc3)CC2)cnc2cc(-c3cccc(OC(F)(F)F)c3)nn12 [18-16] > 8.00

* * *

Molecular target: human M2 receptor (Homo sapiens (Human))
Assay: Radioligand (tritiated N-methylscopolamine) binding assay, M2
Details: CHO cell membranes expressing human M2; 1.5 nM tritiated N-methylscopolamine; 90 min, 37° C.; read-out: Ki against M2 receptor (Table 21, M2)
The molecules listed here are annotated with their Ki.

{"columns": ["MOLECULE", "ASSAY_TARGET", "Ki"],
 "data": [
  ["C[C@@H]1CN(c2cc(F)c(OC(F)(F)F)c(F)c2)CCN1C(=O)NCCC1CCN(Cc2ccccc2)CC1 [4-60]", "human M2 receptor (Homo sapiens (Human))", "0.01 to 0.1 µM"],
  ["C[C@@H]1CN(c2ccc(F)c(C#N)c2)CCN1C(=O)NC[C@H](O)C1CCN(Cc2ccccc2)CC1 [7-12]", "human M2 receptor (Homo sapiens (Human))", "> 1 µM"],
  ["C[C@@H]1CN(c2cc(F)c(F)c(F)c2)CCN1C(=O)NCCC1(O)CCN(Cc2ccccc2)CC1 [7-1]", "human M2 receptor (Homo sapiens (Human))", "> 1 µM"],
  ["C[C@@H]1CN(c2ncc(C(F)(F)F)cn2)CCN1C(=O)NCCC1CCN(Cc2cccc(F)c2)CC1 [6-36]", "human M2 receptor (Homo sapiens (Human))", "0.1 to 1 µM"],
  ["COc1nc(N2C[C@@H](C)N(C(=O)NCCC3CCN(Cc4ccccc4)CC3)[C@@H](C)C2)ncc1C#N [5-17]", "human M2 receptor (Homo sapiens (Human))", "0.1 to 1 µM"]
]}

Bench note: what Ki did Cc1ccccc1CN1CCC(CCNC(=O)N2CCN(c3ncc(C(F)(F)F)cn3)C[C@H]2C)CC1 [6-35] show? 0.01 to 0.1 µM

Ki lookup needed for CC1CN(c2ccc(OC(F)(F)F)cc2)CCC1C(=O)NCCC1CCN(Cc2ccccc2)CC1 (centres unmarked) [10-42] , thanks. 0.1 to 1 µM

Form field: reported Ki of C[C@@H]1CN(c2cnc(C(F)(F)F)cn2)C[C@@H](C)N1C(=O)NCCC1CCN(Cc2ccccc2)CC1 [26-4] 0.1 to 1 µM

* * *

Consider the following compounds and their measured Ki readings.
Biological target: human M2 receptor (Homo sapiens (Human), UniProt P08172)
Sequence (P08172 whole entry): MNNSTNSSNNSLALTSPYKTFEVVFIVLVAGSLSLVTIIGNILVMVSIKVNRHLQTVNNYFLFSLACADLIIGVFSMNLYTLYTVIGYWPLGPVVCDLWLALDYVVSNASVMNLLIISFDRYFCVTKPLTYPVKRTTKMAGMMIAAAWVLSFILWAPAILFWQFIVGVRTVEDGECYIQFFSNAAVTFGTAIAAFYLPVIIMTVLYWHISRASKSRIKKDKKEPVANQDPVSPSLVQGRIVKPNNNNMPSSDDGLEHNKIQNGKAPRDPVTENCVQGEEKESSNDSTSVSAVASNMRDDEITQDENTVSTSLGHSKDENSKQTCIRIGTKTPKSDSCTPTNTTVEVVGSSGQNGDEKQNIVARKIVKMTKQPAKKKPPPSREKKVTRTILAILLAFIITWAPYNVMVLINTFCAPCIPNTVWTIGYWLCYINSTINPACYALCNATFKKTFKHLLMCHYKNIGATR
Assay: Radioligand (tritiated N-methylscopolamine) binding assay, M2
Details: CHO cell membranes expressing human M2; 1.5 nM tritiated N-methylscopolamine; 90 min, 37° C.; read-out: Ki against M2 receptor (Table 21, M2)
Experimental: Binding affinity (Ki) of compounds was measured by inhibition of radioligand binding to membranes from CHO cells expressing human M1, M2, M3, M4 and M5 receptors. […] Harvesting and radioactivity counting was conducted as previously described (see, e.g., Hoare et al., Mol. Pharmacol. 2003 63(3):751-65); Erratum at Mol. Pharmacol. 2005 July; 68(1): 260).

{"columns": ["COMPOUND", "MEASURED_QUANTITY", "OBSERVED_VALUE"],
 "data": [
  ["C[C@@H]1CN(c2cc(F)c(C#N)cc2F)CCN1C(=O)NCCC1CCN(Cc2ccccc2)CC1", "Ki", "100 to 1000 nM"],
  ["C[C@@H]1CN(c2ncc(C#N)cn2)C[C@H](C)N1C(=O)NCCC1CCN(Cc2ccc(O)cc2)CC1", "Ki", "10 to 100 nM"],
  ["C[C@H]1CN(c2ccc(C#N)cn2)CCC1C(=O)NCCC1CCN(Cc2ccccc2)CC1 (stereo partly drawn)", "Ki", "10 to 100 nM"],
  ["C[C@@H]1CN(c2ccc(OC(F)(F)F)c(C#N)c2)CCN1C(=O)NC[C@@H](O)C1CCN(Cc2ccccc2)CC1", "Ki", "100 to 1000 nM"]
]}

Lab request: please report Ki under test system human M2 receptor (Homo sapiens (Human), UniProt P08172) for C[C@@H]1CN(c2ccc(C#N)c(F)c2)C[C@H](C)N1C(=O)NCCC1CCN(Cc2ccccc2)CC1 10 to 100 nM

Form: Entry = CC1CN(c2ccc(OC(F)(F)F)cc2)CCC1C(=O)NCCC1CCN(Cc2ccccc2)CC1 (stereo not drawn) [10-6] | System = human M2 receptor (Homo sapiens (Human), UniProt P08172) | Ki = ____ 100 to 1000 nM

Which Ki is reported with human M2 receptor (Homo sapiens (Human), UniProt P08172) for this entry: C[C@@H]1CN(c2cnc(C(F)(F)F)nc2)C[C@H](C)N1C(=O)NCCC1CCN(Cc2ccc3[nH]ccc3c2)CC1 ? 10 to 100 nM

Form entry - test system: human M2 receptor (Homo sapiens (Human), UniProt P08172); read-out: Ki; compound: O=C(NCCC1CCN(Cc2ccccc2)CC1)C1CCN(c2ccc(OC(F)(F)F)cc2)CC1 100 to 1000 nM

Under human M2 receptor (Homo sapiens (Human), UniProt P08172): Ki value of C[C@@H]1CN(c2ncc(C#N)c(N)n2)C[C@H](C)N1C(=O)NCCC1CCN(Cc2ccccc2)CC1 [5-14] ? 100 to 1000 nM

GET /values?readout=Ki&system=human M2 receptor (Homo sapiens (Human), UniProt P08172)&item= O=C(NCCC1CCN(Cc2ccccc2)CC1)C1CCN(c2ccc(OC(F)(F)F)c(F)c2)CC1 [10-44] 100 to 1000 nM

Report Ki for C[C@@H]1CN(c2ncc(C(F)(F)F)c(N)n2)CCN1C(=O)NCCC1CCN(Cc2ccccc2)CC1 [21-16] tested on human M2 receptor (Homo sapiens (Human), UniProt P08172). < 10 nM

Query for human M2 receptor (Homo sapiens (Human), UniProt P08172): what Ki does the record show for O=C(NCCC1CCN(Cc2ccccc2)CC1)C1CCN(c2ncc(C(F)(F)F)cc2Cl)CC1 ? < 10 nM

Short answer please: Ki, human M2 receptor (Homo sapiens (Human), UniProt P08172), entry C[C@H]1CN(c2ncc(C(F)(F)F)cc2F)CCC1C(=O)NCCC1CCN(Cc2ccccc2)CC1 (stereo partly drawn) 10 to 100 nM

Recorded Ki for O=C(NCCC1CCN(Cc2ccccc2)CC1)C1CCN(c2ccc(F)c(F)c2)CC1 with human M2 receptor (Homo sapiens (Human), UniProt P08172), please? 100 to 1000 nM

Data provenance is patent US11033539B2.
